Entry source: patent US20240239881A1

// reported IC50 per item
ASSAY SYSTEM: T1, recombinant biotinylated hAngiopoietin-2 protein (R&D, Cat. No.: BT623B/CF) (human, UniProt O15123 19-496, limits assumed, biotinylated (sites not given))
T1 construct: Bought protein; also called Biotin Ang2; human biotin Ang2 protein
T1 sequence: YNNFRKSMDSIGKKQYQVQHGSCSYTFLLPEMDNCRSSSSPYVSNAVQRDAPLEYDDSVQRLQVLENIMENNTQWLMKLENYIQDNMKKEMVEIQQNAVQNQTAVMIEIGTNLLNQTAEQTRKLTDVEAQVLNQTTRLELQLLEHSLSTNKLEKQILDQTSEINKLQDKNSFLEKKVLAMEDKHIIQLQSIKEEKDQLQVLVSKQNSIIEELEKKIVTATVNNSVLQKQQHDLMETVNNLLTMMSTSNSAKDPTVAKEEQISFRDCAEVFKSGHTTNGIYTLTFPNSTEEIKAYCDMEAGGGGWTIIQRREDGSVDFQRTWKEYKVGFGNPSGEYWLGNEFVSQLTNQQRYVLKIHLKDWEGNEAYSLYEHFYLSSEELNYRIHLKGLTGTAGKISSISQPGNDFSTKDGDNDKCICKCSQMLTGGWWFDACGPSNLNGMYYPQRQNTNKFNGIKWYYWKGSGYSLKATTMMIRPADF
TEST: blocking ELISA: antibody titrated against biotinylated hAng2 (300 ng/ml final); blocked binding to coated hTie2 protein; Avidin-HRP detection
Numbers only; they are read as nM.

The examples below pair each entry with its known result.
affinity matured antibody Amhz81H10.4.30 (antibody, human IgG1, kappa, V domains shown) VH: EVQLVESGGGLVKPGGSLRLSCAASGFTFRAAWMNWVRQAPGKGLEWVAEIRLKSNHYETHYAESVKGRFTISRDVSKNTVYLQMNSLKTEDTAVYYCTDTQPGAYWGQGTLVTVSS VL: DIQMTQSPSSLSASVGDRVTITCKASQYVFTDVAWYQQKPGKAPKLLIYWASTRWTGVPSRFSGSGSGTDFTLTISSLQPEDFATYYCQQTSSYPLTFGGGTKVEIKR; 4.91
chimeric antibody 81H10 (antibody, human IgG1, kappa, V domains shown) VH: EVKLEESGGGLVQPGGSMKLSCVASGFTFSNYWMNWVRQSPEKGLEWVAEIRLKSNNYATHYAESVKGRFTISRDVSKSSVYLQMNNLRTEDTGIYYCTDTAPFAYWGQGTLVTVSA VL: DIVMTQSHKFMSTSVGDRVSITCKASQDVGTDVAWYQQKPGQSPKLLIYWASTRHTGVPDRFTGSGSGTDFTLTISNVQSEDLSDYFCQQYSSYPLTFGGGTKLEIKR; 1.32

Continue with the binder presented below.
// IC50 value for humanized antibody hz81H10.4 (antibody, human IgG1, kappa, V domains shown, also called IBI335) VH: EVQLVESGGGLVKPGGSLRLSCAASGFTFSNYWMNWVRQAPGKGLEWVAEIRLKSNNYATHYAESVKGRFTISRDVSKNTVYLQMNSLKTEDTAVYYCTDTAPFAYWGQGTLVTVSS VL: DIQMTQSPSSLSASVGDRVTITCKASQDVGTDVAWYQQKPGKAPKLLIYWASTRHTGVPSRFSGSGSGTDFTLTISSLQPEDFATYYCQQYSSYPLTFGGGTKVEIKR : 0.728
